The measurements presented in this section are drawn from patent US8378117B2.

Here, each record is paired with measured pIC50 data.
Biological target: CB2 receptor (Homo sapiens)
Construct: expressed in transfected cells
Sequence (P34972 whole entry): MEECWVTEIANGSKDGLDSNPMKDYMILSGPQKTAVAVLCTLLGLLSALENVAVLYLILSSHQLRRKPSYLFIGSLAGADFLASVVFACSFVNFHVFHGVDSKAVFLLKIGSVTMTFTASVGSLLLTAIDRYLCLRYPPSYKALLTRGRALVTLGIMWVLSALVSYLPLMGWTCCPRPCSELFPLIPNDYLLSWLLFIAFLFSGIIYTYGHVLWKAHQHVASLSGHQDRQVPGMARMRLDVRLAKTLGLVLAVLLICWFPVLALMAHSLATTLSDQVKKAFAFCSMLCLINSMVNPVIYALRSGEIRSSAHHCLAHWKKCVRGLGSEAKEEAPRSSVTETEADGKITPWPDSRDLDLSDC
Assay: Binding assay for CB2 agonists or inverse agonists (SK-N-MC membranes, [3H]-CP-55,940)
Settings: calculated by linear regression from percent inhibition at various test concentrations; read-out: Cannabinoid CB2 Receptor Binding IC50
Please treat pIC50 as minus the base-10 logarithm of the molar concentration.

Field: example entries. Status: answers known.
CC12CCC(C1)C(C)(C)[C@H]2NC(=O)c1nn(C2CCCCC2)c2c1CCCCC2Cc1cccc(F)c1 (stereo partly shown); 6.22
CC12CCC(C1)C(C)(C)[C@H]2NC(=O)c1nn(-c2ccc(Cl)cc2Cl)c2c1CCCCC2Cc1cccc(F)c1 (stereo partly shown); 6.52
C[C@H](NC(=O)c1nn(C2CCCCC2)c2c1CCCCC2Cc1ccc(F)cc1)c1ccccc1 (stereo partly shown); 6.22

Shift focus to the following entry.
Query: Please give measured pIC50 of the following entry: O=C(NC1CCC1)c1nn(Cc2ccc(Cl)cc2)c2c1CCCCC2Cc1ccc(Cl)cc1 (stereo not shown)
Reply: 6.22
